# credit: a collection of fitness landscapes (doi:10.1126/science.1257360)

B1: PhoQ; a variant is named by its letters at X, in order, P23837 (parent)
chain: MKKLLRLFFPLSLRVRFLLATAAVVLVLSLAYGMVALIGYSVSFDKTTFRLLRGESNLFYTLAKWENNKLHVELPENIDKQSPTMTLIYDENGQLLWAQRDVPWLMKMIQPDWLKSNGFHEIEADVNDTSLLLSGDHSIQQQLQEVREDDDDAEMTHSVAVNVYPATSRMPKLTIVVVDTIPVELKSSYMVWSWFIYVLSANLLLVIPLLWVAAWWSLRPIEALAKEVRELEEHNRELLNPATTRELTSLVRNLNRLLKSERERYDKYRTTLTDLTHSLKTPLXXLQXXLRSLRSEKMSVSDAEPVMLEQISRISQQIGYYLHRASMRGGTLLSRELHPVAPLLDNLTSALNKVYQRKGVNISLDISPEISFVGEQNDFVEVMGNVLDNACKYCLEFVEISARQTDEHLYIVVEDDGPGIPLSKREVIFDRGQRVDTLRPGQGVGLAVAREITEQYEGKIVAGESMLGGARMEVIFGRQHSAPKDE

# Variants of: B1
# ASSAY PROCEDURE: enrichment ratio after two sorts for PhoP signalling (ratio (wild type AVST 3.29)); higher = more functional
# CONDITION LABEL: with PhoP (E. coli)
In all, about 140,000 sequences were measured (“enrichment ratio after two sorts for PhoP signalling”: median about 0, highest 2% from about 11 on). Many of the other results were omitted from the sample, so the highest values are more common in it than they were.
# Lookup of reported enrichment ratio keyed by entry
Give only the figure.

Data request: Name the recorded enrichment ratio for "AESG" .
Data returned: 25.4

Data request: Name the recorded enrichment ratio for "STSG" .
Data returned: 8.56

Data request: Name the recorded enrichment ratio for "FTTL" .
Data returned: 3.67

Data request: Name the recorded enrichment ratio for "SQSG" .
Data returned: 6.12

Data request: Name the recorded enrichment ratio for "GNTL" .
Data returned: 6.85

Data request: Name the recorded enrichment ratio for "AKSG" .
Data returned: 5.13

Data request: Name the recorded enrichment ratio for "AEYS" .
Data returned: 1.65

Data request: Name the recorded enrichment ratio for "GTTL" .
Data returned: 11.7

Data request: Name the recorded enrichment ratio for "AESN" .
Data returned: 11

Data request: Name the recorded enrichment ratio for "TNTL" .
Data returned: 14
